pIC50: −log10 of the molar value.
Listing of pIC50 toward Dihydrofolate reductase (Staphylococcus aureus, UniProt P0A017), each taken from a published source.
RESULT TYPE: pIC50

The following molecules have reported results that may help.
pIC50 reported for this molecule CCc1nnc(NC(=S)NS(=O)(=O)c2ccc(C)cc2)s1 : 6.33

pIC50 reported for this molecule Cc1ccc(S(=O)(=O)NC(=S)Nc2nnc(CCC(C)C)s2)cc1 : 6.46

A = CCc1nc(N)nc(N)c1C#CC(C)c1cc(-c2cc[n+]([O-])cc2)ccc1OC (stereo unspecified)
B = CC(=O)OC[C@H]1O[C@@H](NC(=S)Nc2nc(-c3ccc(Cl)cc3)cs2)[C@H](OC(C)=O)[C@@H](OC(C)=O)[C@@H]1OC(C)=O
C = Cc1ccc(S(=O)(=O)NC(=S)Nc2nncs2)cc1
D = COc1cc(C(C)C#Cc2c(C)nc(N)nc2N)cc(N2CCNCC2)c1 (stereo unspecified)
Enquiry: Sort low-to-high on pIC50, please. Your task in answering is to list the labels in the requested order.
Return: C, B, D, A
(C: 6.43, B: 6.64, D: 6.89, A: 7.35)
